- test_system: Muscarinic acetylcholine receptor M2 (Homo sapiens)
- Sequence (P08172 whole entry): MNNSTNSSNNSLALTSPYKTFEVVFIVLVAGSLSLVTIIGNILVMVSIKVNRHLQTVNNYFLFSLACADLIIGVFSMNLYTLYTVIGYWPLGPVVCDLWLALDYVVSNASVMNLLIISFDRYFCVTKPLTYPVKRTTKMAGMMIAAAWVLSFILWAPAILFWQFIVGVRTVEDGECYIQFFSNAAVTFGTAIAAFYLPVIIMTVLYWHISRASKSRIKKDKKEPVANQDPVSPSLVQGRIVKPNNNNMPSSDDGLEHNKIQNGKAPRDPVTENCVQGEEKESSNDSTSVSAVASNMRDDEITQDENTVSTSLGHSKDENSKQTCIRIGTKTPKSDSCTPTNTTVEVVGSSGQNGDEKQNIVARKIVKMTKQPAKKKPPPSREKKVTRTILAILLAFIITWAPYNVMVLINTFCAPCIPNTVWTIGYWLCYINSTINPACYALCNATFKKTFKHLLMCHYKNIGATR
- measurement_protocol: Antagonist activity at human muscarinic M2 receptor by calcium mobilization assay
pIC50: −log10 of the molar value.
measured_attribute: pIC50

[in] pIC50 for CN1CCN(C(=O)[C@@](F)(Cc2ccccc2)c2ccccc2)CC1 (mixture of isomers) ?
[out] < 5.82

---

- test_system: Muscarinic acetylcholine receptor M1 (Homo sapiens)
- measurement_protocol: Antagonist activity at human muscarinic M1 receptor
- Assay type: functional
- Design: concentration or dose not given beside the values
The source made the active and inactive calls. The rule behind the calls is not given here.
measured_attribute: Activity

Completed entries (count: 5):
CN1CCN(C(=O)[C@@H](Oc2ccccc2)c2ccccc2)CC1 (racemic) ... 107%
CN1CCN(C(=O)C(Cc2cccnc2)c2ccccc2)CC1 (stereo not given) ... 1.1%
CN(C)CCOC(=O)C(Cc1ccccc1)c1ccccc1 (stereo not given) ... 1.5%
CN1CCN(C(=O)C(F)(Cc2ccccc2)c2ccccc2)CC1 (stereo not given) ... 3.1%
CCN1CCN(C(=O)C(Cc2ccccc2)c2ccccc2)CC1 (stereo not given) ... 1.8%

[in] Query (molecule): CCN1CCCN(C(=O)C(Cc2ccccc2)c2ccccc2)CC1 (stereo not given) ; field requested: Activity
[out] 2.2%

[in] Which Activity is listed for O=C(C(Cc1ccccc1)c1ccccc1)N1CCN(CC(F)(F)F)CC1 (stereo not given) ?
[out] inactive

[in] Given the molecule CN(C)CCN(C)C(=O)C(Cc1ccccc1)c1ccccc1 (stereo not given) , what is its reported Activity?
[out] 37.1%
